target: T1, rhNav1.7α + β1-β2-β3 (rhesus monkey); assay: FACS, CHO Flp-In, competitor 1 µM IRR00092
T1 construct: also called rhNav1.7-beta1-beta2-beta3; rhNav1.7-β1-β2-β3
RECORDED ENDPOINT: MFI (MFI)
Answer with a number only, understood to be in MFI.

* F0103PMP492E09 (bispecific antibody, crude periplasmic extract; also called F103275B05(N93R)-50GS-F0103492E09 bivalent ISVD) EVQLVESGGGLVQPGGSLRLSCAASGSIFNINSMAWYRRAPGKQRELVASSTNGGSTNYADSVKGRFTISRDNAKRVYLQMNSLTPEDTAVYYCRALLQPSIYDISRTYWGQGTLVTVSSGGGGSGGGGSGGGGSGGGGSGGGGSGGGGSGGGGSGGGGSGGGGSGGGGSEVQLVESGGGLVQAGGSLRLSCAASKSILSFAYMRWYRQAPGKQREFVASIAIGGATSYTDSVKGRFTISRDNAKNTVYLQMNSLKPEDTAVYYCSAPAGQYRGQGTLVTVSSAAADYKDHDGDYKDHDIDYKDDDDKGAAHHHHHHKAAGGGGG | 111000

Now look at this one.
Incoming: Give recorded MFI. F0103PMP478E09 (bispecific antibody, Screened as crude periplasmic extract; also called F103275B05(N93R)-50GS-F0103478E09 bivalent ISVD) EVQLVESGGGLVQPGGSLRLSCAASGSIFNINSMAWYRRAPGKQRELVASSTNGGSTNYADSVKGRFTISRDNAKRVYLQMNSLTPEDTAVYYCRALLQPSIYDISRTYWGQGTLVTVSSGGGGSGGGGSGGGGSGGGGSGGGGSGGGGSGGGGSGGGGSGGGGSGGGGSEVQLVESGGGLVQAGGSLRLSCAASGRAFSTLAMGWFRQAPGKEREFVAAISRNGNNSATGDSLKGRFTISRDSTKSTVFLQMNTLKPEDTAVYYCAAISTPSASHPYVRKESYRYWGQGTQVTVSSAAADYKDHDGDYKDHDIDYKDDDDKGAAHHHHHHKAAGGGGG
Outgoing: 139000

Value source: patent US20240002497A1
